# System: 931267-113-T-J1-PDC KRAS spheroid with HUVEC/MSC, viability
# assayDetails: Anticancer human tumor 931267-113-T-J1-PDC patient-derived colon adenocarcinoma cell line growth inhibition [KRAS2]
# settings: second compound 0.1 µM; first compound 0.01 µM; stronger effect = lower value
reportedEndpoint: viability, T/C

viability, T/C lookup needed for CCN1CCN(Cc2ccc(Nc3ncc(F)c(-c4cc(F)c5nc(C)n(C(C)C)c5c4)n3)nc2)CC1 + C=CC(=O)N1CCN(c2nc(=O)n(-c3c(C)ccnc3C(C)C)c3nc(-c4c(O)cccc4F)c(F)cc23)C(C)C1 , thanks.
73.6%

Query (compound): CC(=O)Nc1cccc(-n2c(=O)n(C3CC3)c(=O)c3c(Nc4ccc(I)cc4F)n(C)c(=O)c(C)c32)c1 + C=CC(=O)N1CCN(c2nc(=O)n(-c3c(C)ccnc3C(C)C)c3nc(-c4c(O)cccc4F)c(F)cc23)C(C)C1 ; field requested: viability, T/C
62.9%

# input compound: Cn1ncnc1[C@H]1c2n[nH]c(=O)c3cc(F)cc(c23)N[C@@H]1c1ccc(F)cc1 + CNCc1ccccc1-c1csc(C(C)Nc2nc(C)nc3cc(OC)c(OC)cc23)c1 ; wanted: its viability, T/C
84%

Can you look up the measured viability, T/C of CC(C)n1nc(-c2ccc3oc(N)nc3c2)c2c(N)ncnc21 + COc1cc2nc(C)nc(NC(C)c3cc(N)cc(C(F)(F)F)c3)c2cc1OC1CCOC1 for me?
50.5%

Can you share its viability, T/C? I mean this compound: CC(C)n1nc(-c2ccc3oc(N)nc3c2)c2c(N)ncnc21 + C=CC(=O)N1CCN(c2nc(=O)n(-c3c(C)ccnc3C(C)C)c3nc(-c4c(O)cccc4F)c(F)cc23)C(C)C1
48.2%

Quick one: viability, T/C for CCN1CCN(Cc2ccc(Nc3ncc(F)c(-c4cc(F)c5nc(C)n(C(C)C)c5c4)n3)nc2)CC1 + CNCc1ccccc1-c1csc(C(C)Nc2nc(C)nc3cc(OC)c(OC)cc23)c1 ?
82.9%

What value of measured viability, T/C is listed for CCN1CCN(Cc2ccc(Nc3ncc(F)c(-c4cc(F)c5nc(C)n(C(C)C)c5c4)n3)nc2)CC1 + C=CC(=O)N1CCN(c2nc(OCC3CCCN3C)nc3c2CCN(c2cccc4cccc(C)c24)C3)CC1CC#N ?
72.2%

---
State the recorded viability, T/C for this entry: CN(C)C/C=C/C(=O)Nc1cc2c(Nc3ccc(F)c(Cl)c3)ncnc2cc1O[C@H]1CCOC1 + CNCc1ccccc1-c1csc(C(C)Nc2nc(C)nc3cc(OC)c(OC)cc23)c1
97.7%

---

# System: 931267-113-T-J1-PDC KRAS spheroid with HUVEC/MSC, viability
# assayDetails: Anticancer human tumor 931267-113-T-J1-PDC cell line growth inhibition [KRAS2];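 further: compound exposure lasted 7 days before the readout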;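 on viability, T/C: 100% = DMSO vehicle control viability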
# settings: second compound 1 µM; first compound 0.316 µM; stronger effect = lower value
reportedEndpoint: viability, T/C (%)
Your answer is read as %, so omit the unit and give the number.

Examples with their reported viability, T/C follow.
Item COc1cc(Nc2ncc3c(n2)-c2ccc(Cl)cc2C(c2c(F)cccc2OC)=NC3)ccc1C(=O)O + CC1OCC2(CCN(c3cnc(Sc4ccnc(N)c4Cl)c(N)n3)CC2)C1N has what recorded viability, T/C?
54.4

For the compound shown here, CC1OCC2(CCN(c3cnc(Sc4ccnc(N)c4Cl)c(N)n3)CC2)C1N (configuration not stated) + CNCc1ccccc1-c1csc(C(C)Nc2nc(C)nc3cc(OC)c(OC)cc23)c1 , give the reported viability, T/C.
54.2

# query: viability, T/C of entry COC(=O)c1ccc2c(C(=Nc3ccc(N(C)C(=O)CN4CCN(C)CC4)cc3)c3ccccc3)c(O)[nH]c2c1 + CNCc1ccccc1-c1csc(C(C)Nc2nc(C)nc3cc(OC)c(OC)cc23)c1
72

Which viability, T/C is listed for CC(C)NCC(C(=O)N1CCN(c2ncnc3c2C(C)CC3O)CC1)c1ccc(Cl)cc1 (configuration not stated) + CNCc1ccccc1-c1csc(C(C)Nc2nc(C)nc3cc(OC)c(OC)cc23)c1 ?
38.9

Bench note: what viability, T/C did CC1OCC2(CCN(c3cnc(Sc4ccnc(N)c4Cl)c(N)n3)CC2)C1N (configuration not stated) + C=CC(=O)N1CCN(c2nc(=O)n(-c3c(C)ccnc3C(C)C)c3nc(-c4c(O)cccc4F)c(F)cc23)C(C)C1 show?
79

Which viability, T/C is reported for this compound? CC(C)NCC(C(=O)N1CCN(c2ncnc3c2C(C)CC3O)CC1)c1ccc(Cl)cc1 (configuration not stated) + C=CC(=O)N1CCN(c2nc(OCC3CCCN3C)nc3c2CCN(c2cccc4cccc(C)c24)C3)CC1CC#N
64.5

Using the record for CC1(C)CCC(CN2CCN(c3ccc(C(=O)NS(=O)(=O)c4ccc(NCC5CCOCC5)c([N+](=O)[O-])c4)c(Oc4cnc5[nH]ccc5c4)c3)CC2)=C(c2ccc(Cl)cc2)C1 + C=CC(=O)N1CCN(c2nc(OCC3CCCN3C)nc3c2CCN(c2cccc4cccc(C)c24)C3)CC1CC#N , report its viability, T/C.
94.5

Recorded viability, T/C of CC1(C)CCC(CN2CCN(c3ccc(C(=O)NS(=O)(=O)c4ccc(NCC5CCOCC5)c([N+](=O)[O-])c4)c(Oc4cnc5[nH]ccc5c4)c3)CC2)=C(c2ccc(Cl)cc2)C1 + CNCc1ccccc1-c1csc(C(C)Nc2nc(C)nc3cc(OC)c(OC)cc23)c1 , please.
54

***
# input compound: CCN1CCN(Cc2ccc(Nc3ncc(F)c(-c4cc(F)c5nc(C)n(C(C)C)c5c4)n3)nc2)CC1 + CC1OCC2(CCN(c3cnc(Sc4ccnc(N)c4Cl)c(N)n3)CC2)C1N ; wanted: its viability, T/C
42

Would you kindly share the measured viability, T/C for CCNC(=O)CC1N=C(c2ccc(Cl)cc2)c2cc(OC)ccc2-n2c(C)nnc21 (configuration not stated) + C=CC(=O)N1CCN(c2nc(=O)n(-c3c(C)ccnc3C(C)C)c3nc(-c4c(O)cccc4F)c(F)cc23)C(C)C1 ?
84.4

What viability, T/C value was documented for this compound, CC(C)NCC(C(=O)N1CCN(c2ncnc3c2C(C)CC3O)CC1)c1ccc(Cl)cc1 (configuration not stated) + COc1cc2nc(C)nc(NC(C)c3cc(N)cc(C(F)(F)F)c3)c2cc1OC1CCOC1 ?
72.7

Which value of viability, T/C has been reported for CC1(C)CCC(CN2CCN(c3ccc(C(=O)NS(=O)(=O)c4ccc(NCC5CCOCC5)c([N+](=O)[O-])c4)c(Oc4cnc5[nH]ccc5c4)c3)CC2)=C(c2ccc(Cl)cc2)C1 + C=CC(=O)N1CCN(c2nc(=O)n(-c3c(C)ccnc3C(C)C)c3nc(-c4c(O)cccc4F)c(F)cc23)C(C)C1 in the records?
79.9

---

# System: 931267-113-T-J1-PDC KRAS spheroid with HUVEC/MSC, viability
# assayDetails: Anticancer human tumor 931267-113-T-J1-PDC cell line growth inhibition [KRAS2];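 further: compound exposure lasted 7 days before the readout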
# settings: curve of first compound; second compound 1 µM
# From the text: Multicellular complex tumor spheroid response to RAS pathway inhibitors in combination with a targeted agents in patient-derived cell lines with oncogenic KRAS variants from multiple cancer types A high-throughput screen of multi-cell type tumor spheroids was designed to identify active combinations of targeted small molecules and KRAS pathway inhibitors. […] Compounds. […] If the clinical Cmax for an agent had not been determined, the highest concentration tested was 10 microM. […]
reportedEndpoint: IC50

Fill in the blank: the reported IC50 of CC(=O)OC12COC1CC(O)C1(C)C(=O)C(O)C3=C(C)C(OC(=O)C(O)C(NC(=O)OC(C)(C)C)c4ccccc4)CC(O)(C(OC(=O)c4ccccc4)C21)C3(C)C (stereo not given) + CC1OCC2(CCN(c3cnc(Sc4ccnc(N)c4Cl)c(N)n3)CC2)C1N is ____.
> 3.16 µM

More entries:
I have this molecule here, CC(=O)Nc1cccc(-n2c(=O)n(C3CC3)c(=O)c3c(Nc4ccc(I)cc4F)n(C)c(=O)c(C)c32)c1 + CNCc1ccccc1-c1csc(C(C)Nc2nc(C)nc3cc(OC)c(OC)cc23)c1 , and I need its recorded IC50.
< 0.0001 µM

Which IC50 reading was recorded for the molecule COc1cc(Nc2ncc3c(n2)-c2ccc(Cl)cc2C(c2c(F)cccc2OC)=NC3)ccc1C(=O)O + C=CC(=O)N1CCN(c2nc(=O)n(-c3c(C)ccnc3C(C)C)c3nc(-c4c(O)cccc4F)c(F)cc23)C(C)C1 ?
> 10 µM

Tell me the measured IC50 of Cn1ncnc1[C@H]1c2n[nH]c(=O)c3cc(F)cc(c23)N[C@@H]1c1ccc(F)cc1 + COc1cc2nc(C)nc(NC(C)c3cc(N)cc(C(F)(F)F)c3)c2cc1OC1CCOC1 , please.
> 0.1 µM

# query: IC50 of entry O=C(c1cc(Cc2n[nH]c(=O)c3ccccc23)ccc1F)N1CCN(C(=O)C2CC2)CC1 + COc1cc2nc(C)nc(NC(C)c3cc(N)cc(C(F)(F)F)c3)c2cc1OC1CCOC1
> 10 µM
